ASSAY_OVERVIEW: The drug is tested on Bacteroides vulgatus strain: ATCC8482 for biotransformation. The drug concentrations were measured before and after a 12-h incubation by liquid-chromatography-coupled mass spectrometry (LC–MS)
CONDITION_INFO: phocaeicola vulgatus, 2 µM
OBSERVED_PROPERTY: Bacterial Biotransformation

{"columns": ["COMPOUND", "Bacterial Biotransformation"],
 "data": [
  ["O=C1N=C([O-])NC1(c1ccccc1)c1ccccc1.[Na+] [PHENYTOIN SODIUM]", "Compound metabolized"],
  ["COc1ccccc1OCC(O)COC(N)=O (configuration not stated)", "Compound NOT metabolized"],
  ["CN1CCC[C@@H]1CCO[C@](C)(c1ccccc1)c1ccc(Cl)cc1.O=C(O)/C=C/C(=O)O [CLEMASTINE FUMARATE]", "Compound metabolized"],
  ["CN1CCN(CC/C=C2/c3ccccc3Sc3ccc(S(=O)(=O)N(C)C)cc32)CC1", "Compound metabolized"],
  ["Cc1ccc(-c2nc3ccc(C)cn3c2CC(=O)N(C)C)cc1", "Compound NOT metabolized"]
]}

State its Bacterial Biotransformation: CCN(C(C)=O)c1cccc(-c2ccnc3c(C#N)cnn23)c1
Compound metabolized

State its Bacterial Biotransformation: CCC(=O)NCC[C@@H]1CCc2ccc3c(c21)CCO3
Compound metabolized

State its Bacterial Biotransformation: NC12CC3CC(CC(C3)C1)C2
Compound NOT metabolized

State its Bacterial Biotransformation: CCOc1ccc2nc(S(N)(=O)=O)sc2c1 [ETHOXZOLAMIDE]
Compound NOT metabolized

State its Bacterial Biotransformation: Cc1nc2n(c(=O)c1CCN1CCC(c3noc4cc(F)ccc34)CC1)CCCC2
Compound NOT metabolized

State its Bacterial Biotransformation: COc1ccccc1OCCNCC(O)COc1cccc2[nH]c3ccccc3c12 (configuration not stated)
Compound metabolized

State its Bacterial Biotransformation: OCCN(CCO)c1nc(N2CCCCC2)c2nc(N(CCO)CCO)nc(N3CCCCC3)c2n1
Compound metabolized

State its Bacterial Biotransformation: CC1OC(OC2C(O)CC(OC3C(O)CC(OC4CCC5(C)C(CCC6C5CCC5(C)C(C7=CC(=O)OC7)CCC65O)C4)OC3C)OC2C)CC(O)C1O (configuration not stated)
Compound metabolized

State its Bacterial Biotransformation: CCC1(c2ccc(N)cc2)CCC(=O)NC1=O (configuration not stated) [AMINOGLUTETHIMIDE]
Compound NOT metabolized

State its Bacterial Biotransformation: COc1ccc(C(CN(C)C)C2(O)CCCCC2)cc1 (configuration not stated)
Compound NOT metabolized

State its Bacterial Biotransformation: CN1C[C@H](C(=O)N[C@]2(C)O[C@@]3(O)[C@@H]4CCCN4C(=O)[C@H](Cc4ccccc4)N3C2=O)C=C2c3cccc4[nH]cc(c34)C[C@H]21.CN1C[C@H](C(=O)N[C@]2(C)O[C@@]3(O)[C@@H]4CCCN4C(=O)[C@H](Cc4ccccc4)N3C2=O)C=C2c3cccc4[nH]cc(c34)C[C@H]21.O=C(O)C(O)C(O)C(=O)O [ERGOTAMINE TARTRATE]
Compound metabolized

State its Bacterial Biotransformation: COC(=O)[C@H](c1ccccc1Cl)N1CCc2sccc2C1.O=S(=O)(O)O [CLOPIDOGREL BISULFATE]
Compound metabolized

Reference for the values: ChEMBL document CHEMBL5303573
